Quick reference: pKd of the listed items.
- Test system: T1, hPD-L1mIg fusion protein (human, UniProt Q9NZQ7 19-238)
- T1 construct: also called hPD-L1 mIg protein; biotin-labeled hPD-L1-mouse Fc fusion protein; not shown: mouse Ig (Fc) part
- T1 sequence (Q9NZQ7 19-238): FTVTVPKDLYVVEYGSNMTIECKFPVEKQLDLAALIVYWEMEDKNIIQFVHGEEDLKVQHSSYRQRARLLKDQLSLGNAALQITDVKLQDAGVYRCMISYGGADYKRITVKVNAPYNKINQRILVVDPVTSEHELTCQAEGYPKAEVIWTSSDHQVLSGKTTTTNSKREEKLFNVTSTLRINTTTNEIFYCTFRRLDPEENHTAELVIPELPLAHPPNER
- Test summary: SPR, Biacore T200; hPD-L1 mIg amine-coupled on CM5 chip, antibody injected at 1-32 nM, full kinetic analysis
- Method: The binding affinities and kinetics between the humanized anti-hPD-L1 mAbs and the hPD-L1 protein were assessed with Biacore T200 (GE Healthcare Life Sciences). The hPD-L1 mIg protein was immobilized on the sensor chip CM5 by amine coupling. […] Binding kinetic parameters, including association rate (Kₒₙ), dissociation rate (Koff), and affinity constant (KD) were determined by full kinetic analysis. […]
In plain terms, pKd is the concentration in mol/L turned into minus its base-10 logarithm.

Enquiry: I would be grateful if you could share the reported pKd for anti-PD-L1 HC3 + LC3 (antibody, V domains shown, Humanized antibody, Humanized VH3 + Humanized VL 3; also called H3+L3; H33) VH: EVQLVQSGAEVKKPGASVKVSCKASGFNIKDTYMYWVRQAPGQGLEWMGRIDPANDNTKYAQKFQGRVTITADTSTNTAYMELSSLRSEDTAVYYCARAKNLLNYFDYWGQGTLVTVSS VL: DIQMTQSPSSLSASVGDRVTITCRASQEISGYLSWYQQKPGKAPKRLIYATSTLDSGVPSRFSGSRSGSDYTLTISSLQPEDFATYYCLQYAIYPLTFGQGTKLEIKR .
Return: 9.00

Continue with the binder presented below.
Enquiry: I would be grateful if you could share the reported pKd for anti-PD-L1 HC2 + LC2 (antibody, V domains shown, Humanized antibody, Humanized VH 2 + Humanized VL 2; also called H2+L2; H22) VH: QVQLVQSGAEVKKPGASVKVSCKASGFNIKDTYMYWVRQAPGQGLEWIGRIDPANDNTKYAPKFQGRVTITADTSTNTAYMELSSLRSEDTAVYYCARAKNLLNYFDYWGQGTLVTVSS VL: DIQMTQSPSSLSASVGDRVTITCRASQEISGYLSWLQQKPGKAPKRLIYATSTLQSGVPSRFSGSRSGTDYTLTISSLQPEDFATYYCLQYAIYPLTFGQGTKLEIKR .
Return: 8.91
